tested.target: T1, recombinant human A33 antigen (human, UniProt Q99795 22-233, limits assumed)
T1 construct: also called human antigen A33; immobilized recombinant human A33
T1 sequence (looked up): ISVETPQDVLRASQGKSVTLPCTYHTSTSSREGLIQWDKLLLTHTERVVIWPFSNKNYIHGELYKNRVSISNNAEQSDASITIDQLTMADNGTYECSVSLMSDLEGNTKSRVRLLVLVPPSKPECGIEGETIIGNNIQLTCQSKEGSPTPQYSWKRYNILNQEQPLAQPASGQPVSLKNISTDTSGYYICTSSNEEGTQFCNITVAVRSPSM
assay.details: SPR (Biacore), recombinant human A33 immobilized on CM5 chip, Fab injected at 75-200 nM

# binder, unit.symbol, koff
rows = [
    ("humanized Fab D (human VLD and human VHD) (Fab, V domains shown) VH: EVQVMESGGGLVKPGGSLRLSCAASGIDFSHYGISWVRQAPGKGLEWVSYIYPNYGSVDYASSVNGRFTISLDNAQNSLYLQMNSLRAEDTAVYFCARDRGYYSGSRGTRLDLWGQGTLVTVSS VL: ELQMTQSPSSLSASVGDRVTITCLASEFLFNGVSWYQQKPGKVPKFLIYGASNLESGVPSRFSGSGSGTDYTLTISSLQPEDVATYYCLGGYSGSSGLTFGGGTKVEIK", "s⁻¹", 0.0019),
]

Data provenance: patent US6346249
